target entity: EPHB1 (UniProt P54762)
Sequence (P54762 whole entry, looked up): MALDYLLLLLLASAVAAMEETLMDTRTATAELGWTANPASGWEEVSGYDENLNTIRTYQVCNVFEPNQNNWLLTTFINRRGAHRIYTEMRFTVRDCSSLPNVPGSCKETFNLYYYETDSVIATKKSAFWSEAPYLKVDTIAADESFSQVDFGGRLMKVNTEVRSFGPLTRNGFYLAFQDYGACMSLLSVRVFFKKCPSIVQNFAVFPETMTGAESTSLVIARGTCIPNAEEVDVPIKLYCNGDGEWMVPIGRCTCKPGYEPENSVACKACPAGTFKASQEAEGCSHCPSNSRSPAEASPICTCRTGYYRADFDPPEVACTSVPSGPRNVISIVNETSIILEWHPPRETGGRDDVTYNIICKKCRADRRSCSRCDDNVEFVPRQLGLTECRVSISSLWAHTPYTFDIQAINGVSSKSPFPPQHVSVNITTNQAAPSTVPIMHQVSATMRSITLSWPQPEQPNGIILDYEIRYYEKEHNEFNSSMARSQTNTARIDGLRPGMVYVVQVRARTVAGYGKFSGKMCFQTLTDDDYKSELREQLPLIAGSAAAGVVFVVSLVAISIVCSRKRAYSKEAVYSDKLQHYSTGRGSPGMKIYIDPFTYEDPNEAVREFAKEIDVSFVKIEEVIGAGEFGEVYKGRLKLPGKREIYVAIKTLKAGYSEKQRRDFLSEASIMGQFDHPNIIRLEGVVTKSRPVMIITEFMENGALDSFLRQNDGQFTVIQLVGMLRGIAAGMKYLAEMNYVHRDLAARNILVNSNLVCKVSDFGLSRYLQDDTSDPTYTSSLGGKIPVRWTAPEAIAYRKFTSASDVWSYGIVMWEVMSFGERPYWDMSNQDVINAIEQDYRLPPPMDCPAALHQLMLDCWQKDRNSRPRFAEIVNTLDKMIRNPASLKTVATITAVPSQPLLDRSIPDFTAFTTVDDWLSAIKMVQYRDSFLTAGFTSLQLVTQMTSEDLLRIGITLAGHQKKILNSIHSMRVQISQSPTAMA
experiment description: phosphorylation enrichment, bacterial display (enrichment ratio); higher = better substrate or ligand; peptides without Tyr show the background;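 further: 11-residue human phosphosite peptides and single-mutation variants displayed on the E. coli surface, counted by deep sequencing, each peptide's frequency after selection divided by its frequency in the unselected input library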;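 further: frequency after pTyr selection over input frequency; kinase dosed for 20-30% of maximal phosphorylation in three min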
endpoint name: phosphorylation enrichment

Some solved cases for reference:
ordered residues: QPTPGYEVGQR [TSC2_Y1788_E1783Q]
phosphorylation enrichment: 0.454

ordered residues: ATVRPYRPFII [LRP5_Y1528_A1525V_YF]
phosphorylation enrichment: 0.438

ordered residues: ELTTCYRKKCS [CCBE1_Y70_C75S]
phosphorylation enrichment: 0.431

ordered residues: TTEHIYGDNFF [UBA7_Y524]
phosphorylation enrichment: 0.458

Ask | Fill in: phosphorylation enrichment of NDENIYKGLPD [VAV3_Y141_D139N] is ___
Reply | 0.564

Ask | // returns reported phosphorylation enrichment for input FVSIVYNDSGE [TSC2_Y1650]
Reply | 0.509

###

The entries below come with measured phosphorylation enrichment values attached.
target entity: Hck (UniProt P08631)
Sequence (P08631 whole entry, looked up): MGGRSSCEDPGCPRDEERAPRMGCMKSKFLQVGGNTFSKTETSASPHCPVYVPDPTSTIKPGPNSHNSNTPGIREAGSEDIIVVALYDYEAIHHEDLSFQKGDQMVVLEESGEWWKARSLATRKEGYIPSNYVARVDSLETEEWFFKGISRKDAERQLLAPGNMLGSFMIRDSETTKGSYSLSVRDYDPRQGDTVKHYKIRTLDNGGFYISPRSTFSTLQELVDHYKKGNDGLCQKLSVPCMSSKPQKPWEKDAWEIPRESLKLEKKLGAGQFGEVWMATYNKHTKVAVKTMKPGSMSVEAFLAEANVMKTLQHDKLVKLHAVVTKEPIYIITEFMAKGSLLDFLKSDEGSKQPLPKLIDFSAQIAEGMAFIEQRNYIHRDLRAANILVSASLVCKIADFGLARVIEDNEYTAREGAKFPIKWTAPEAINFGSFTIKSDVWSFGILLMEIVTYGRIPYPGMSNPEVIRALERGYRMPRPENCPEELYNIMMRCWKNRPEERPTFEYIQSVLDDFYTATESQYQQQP
experiment description: phosphorylation enrichment, bacterial display (enrichment ratio); higher = better substrate or ligand; peptides without Tyr show the background
Please reply with the number alone, leaving off any unit.

ordered residues: SIKDKYVTALY [KCNH2_Y611]
quantitative readout: 0.785

ordered residues: EKRDAYVSCLN [GSR_Y150_R153C]
quantitative readout: 0.53

ordered residues: NLGQQYNSPQE [UMPS_Y432]
quantitative readout: 0.502

ordered residues: KEAQVYQAFKL [SUCLG2_Y343]
quantitative readout: 9.46

ordered residues: VTPSEYLEIVR [TMEM130_Y412_E407V]
quantitative readout: 0.751

ordered residues: ISKKRYAGLLF [POLD1_Y809]
quantitative readout: 0.519

ordered residues: ELQDDYEDTME [SLC4A1_Y8_M11T]
quantitative readout: 0.649

ordered residues: GRQWNYVASMS [KLHL4_Y552]
quantitative readout: 0.4

Ask | Field: phosphorylation enrichment (Hck (UniProt P08631)). Entry: YLRTGYSVPYG [TGM1_Y370]
Reply | 0.493

Ask | Under Hck (UniProt P08631): phosphorylation enrichment value of VLICAYLLHRG [PTEN_Y138_M134L] ?
Reply | 0.608

###

target entity: FGFR3 (UniProt P22607)
Sequence (P22607 whole entry, looked up): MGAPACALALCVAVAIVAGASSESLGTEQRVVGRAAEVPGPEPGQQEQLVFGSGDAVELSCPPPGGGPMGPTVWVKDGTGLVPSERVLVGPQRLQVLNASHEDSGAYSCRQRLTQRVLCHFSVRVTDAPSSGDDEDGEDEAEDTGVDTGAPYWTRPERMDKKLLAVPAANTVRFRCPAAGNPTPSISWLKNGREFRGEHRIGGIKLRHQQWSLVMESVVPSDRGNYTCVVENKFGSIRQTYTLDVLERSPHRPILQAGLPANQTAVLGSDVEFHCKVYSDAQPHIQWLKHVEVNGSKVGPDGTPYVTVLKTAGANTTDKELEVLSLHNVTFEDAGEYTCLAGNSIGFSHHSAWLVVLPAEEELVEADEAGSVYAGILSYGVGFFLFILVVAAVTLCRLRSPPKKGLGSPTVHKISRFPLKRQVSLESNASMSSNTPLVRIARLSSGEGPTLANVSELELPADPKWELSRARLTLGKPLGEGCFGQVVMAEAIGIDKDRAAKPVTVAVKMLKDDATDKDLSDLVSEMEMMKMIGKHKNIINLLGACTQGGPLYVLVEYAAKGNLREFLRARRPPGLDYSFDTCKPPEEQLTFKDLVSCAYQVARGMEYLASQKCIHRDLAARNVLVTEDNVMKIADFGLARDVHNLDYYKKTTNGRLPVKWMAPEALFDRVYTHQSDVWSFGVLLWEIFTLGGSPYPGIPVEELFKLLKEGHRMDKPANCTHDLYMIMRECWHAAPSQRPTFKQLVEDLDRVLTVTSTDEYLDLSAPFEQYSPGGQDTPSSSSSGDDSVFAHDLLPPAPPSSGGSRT
experiment description: phosphorylation enrichment, bacterial display (enrichment ratio); higher = better substrate or ligand; peptides without Tyr show the background
endpoint name: phosphorylation enrichment

A selection of reference data follows.
ordered residues: QMVGMYASSSM [AVPR2_Y124_Y128S]
result: 0.435
//
ordered residues: VIKSSYQVAKA [CPT1B_Y534_E531K]
result: 0.428

Ask | Look up phosphorylation enrichment for this sequence: EIIPFYGMSTY [FNDC3B_Y175]
Reply | 0.709

###

target entity: Jak2 (UniProt O60674)
Sequence (O60674 whole entry, looked up): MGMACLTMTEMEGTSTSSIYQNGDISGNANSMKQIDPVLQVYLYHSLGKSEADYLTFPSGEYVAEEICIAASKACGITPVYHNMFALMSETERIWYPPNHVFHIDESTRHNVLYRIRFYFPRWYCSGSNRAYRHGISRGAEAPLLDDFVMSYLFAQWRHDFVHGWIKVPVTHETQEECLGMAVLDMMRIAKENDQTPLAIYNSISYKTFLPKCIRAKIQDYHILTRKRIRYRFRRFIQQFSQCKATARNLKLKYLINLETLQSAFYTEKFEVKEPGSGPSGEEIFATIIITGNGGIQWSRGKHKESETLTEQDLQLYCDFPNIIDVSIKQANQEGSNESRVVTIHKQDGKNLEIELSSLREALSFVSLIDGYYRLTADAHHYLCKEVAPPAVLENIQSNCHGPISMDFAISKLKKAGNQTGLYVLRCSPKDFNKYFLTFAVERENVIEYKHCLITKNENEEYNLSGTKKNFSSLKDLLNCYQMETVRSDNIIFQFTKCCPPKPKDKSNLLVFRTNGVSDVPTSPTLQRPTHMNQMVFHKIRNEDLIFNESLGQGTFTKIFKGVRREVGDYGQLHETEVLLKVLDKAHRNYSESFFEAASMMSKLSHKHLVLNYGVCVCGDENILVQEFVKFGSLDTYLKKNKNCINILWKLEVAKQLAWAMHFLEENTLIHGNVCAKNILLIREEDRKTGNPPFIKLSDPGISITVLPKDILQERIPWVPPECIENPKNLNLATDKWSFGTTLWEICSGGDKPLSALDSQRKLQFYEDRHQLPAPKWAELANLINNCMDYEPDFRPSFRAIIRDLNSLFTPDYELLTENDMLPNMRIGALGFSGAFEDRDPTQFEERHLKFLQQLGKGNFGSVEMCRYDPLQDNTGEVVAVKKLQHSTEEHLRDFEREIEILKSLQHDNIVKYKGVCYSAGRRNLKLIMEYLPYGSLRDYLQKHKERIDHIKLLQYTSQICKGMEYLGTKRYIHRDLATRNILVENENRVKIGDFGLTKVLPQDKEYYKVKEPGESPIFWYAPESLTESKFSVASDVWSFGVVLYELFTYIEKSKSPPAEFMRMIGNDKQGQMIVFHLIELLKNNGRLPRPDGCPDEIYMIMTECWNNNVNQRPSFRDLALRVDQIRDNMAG
experiment description: phosphorylation enrichment, bacterial display (enrichment ratio); higher = better substrate or ligand; peptides without Tyr show the background
Items are presented alongside their recorded phosphorylation enrichment.
Keep it simple and answer with nothing but the number.

See these solved cases before continuing.
ordered residues: ATARPYRPFII [LRP5_Y1528_YF]
phosphorylation enrichment: 0.589
--
ordered residues: SLFNGYVFSGV [NEIL3_Y71_YF]
phosphorylation enrichment: 0.908

Ask | Recorded phosphorylation enrichment for GLALRYLSDHS [VWF_Y1584] , please?
Reply | 0.898
